Species on record: Rattus norvegicus
Assay: Open TG-GATES - Regimen: Single
Assay type: toxicity, organism-based, Sprague-Dawley
Design: regimen Single, gender Male, age 6 weeks
Settings: in vivo, po, 100 mg/kg, 3 h, tissue Blood, route gavage, dose level High
outcome measure: Fbg (mg/dL)
Please reply with the bare figure in mg/dL and do not write the unit itself.

Which Fbg is reported for this compound? `CN(C)CCN(Cc1cccs1)c1ccccn1`
290.4

Entry under review: CC1=C(/C=C/C(C)=C/C=C/C(C)=C/CO)C(C)(C)CCC1 [RETINOL] . Reported Fbg?
312.4

Quick check: Fbg of CN(C)CCCN1c2ccccc2CCc2ccccc21 [IMIPRAMINE] ?
283.8

Record request: Fbg value, item CN(C)CCCN1c2ccccc2CCc2ccc(Cl)cc21 [CLOMIPRAMINE]
257.8
